Recorded values, source patent US11447466B2.

- STUDY TARGET: human TLR9 (Homo sapiens)
- Sequence (Q9NR96 26-1032): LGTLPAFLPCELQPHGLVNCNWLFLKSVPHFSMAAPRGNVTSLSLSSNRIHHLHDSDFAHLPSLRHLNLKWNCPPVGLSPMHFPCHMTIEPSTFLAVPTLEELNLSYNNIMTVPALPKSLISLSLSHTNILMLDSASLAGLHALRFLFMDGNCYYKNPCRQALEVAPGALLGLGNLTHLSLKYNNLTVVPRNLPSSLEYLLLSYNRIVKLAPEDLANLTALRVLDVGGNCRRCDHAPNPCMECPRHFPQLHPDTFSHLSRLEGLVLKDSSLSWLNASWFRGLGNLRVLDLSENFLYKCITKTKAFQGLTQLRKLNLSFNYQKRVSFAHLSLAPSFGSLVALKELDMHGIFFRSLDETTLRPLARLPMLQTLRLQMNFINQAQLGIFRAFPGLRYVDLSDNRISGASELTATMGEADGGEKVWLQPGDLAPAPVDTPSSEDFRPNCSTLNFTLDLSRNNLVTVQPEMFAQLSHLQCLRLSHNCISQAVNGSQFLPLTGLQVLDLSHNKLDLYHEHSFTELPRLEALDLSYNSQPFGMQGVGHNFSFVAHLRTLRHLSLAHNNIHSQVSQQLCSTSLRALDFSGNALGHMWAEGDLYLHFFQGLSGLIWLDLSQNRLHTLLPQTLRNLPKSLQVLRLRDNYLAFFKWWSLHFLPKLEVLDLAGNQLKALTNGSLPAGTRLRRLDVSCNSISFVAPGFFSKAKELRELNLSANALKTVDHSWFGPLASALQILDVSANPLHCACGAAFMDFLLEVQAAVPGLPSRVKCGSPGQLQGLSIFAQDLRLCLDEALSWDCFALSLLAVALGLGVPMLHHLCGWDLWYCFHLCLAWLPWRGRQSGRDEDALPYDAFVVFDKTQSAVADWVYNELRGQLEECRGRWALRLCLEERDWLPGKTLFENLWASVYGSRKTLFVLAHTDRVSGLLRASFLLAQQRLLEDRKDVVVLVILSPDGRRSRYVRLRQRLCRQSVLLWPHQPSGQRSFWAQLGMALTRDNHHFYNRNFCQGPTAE
- EXPERIMENTAL DETAILS: TLR9 inhibition reporter assay (HEK-Blue SEAP reporter, ODN2006 stimulation)
- CONDITION NOTES: HEK-Blue cells overexpressing human TLR9, SEAP reporter, ODN2006 5 nM, 22 hour incubation
I'd be grateful if you could share measured pIC50 for these entries.
// pIC50 is dimensionless: -log10 of concentration (M)

What value of pIC50 has been reported for the following compound? "CCCN1CCC(c2ccc3[nH]c(-c4cn(C)c(=O)c(Cl)c4C)c(C(C)C)c3c2)CC1" 5.57

Request the reported pIC50 associated with "Cc1cc(-c2[nH]c3ccc(C4CCN(C(C)(C)C(N)=O)CC4)cc3c2C(C)C)cn(C)c1=O" 4.96

I am curious: what pIC50 value has been reported for Cc1cc(-c2[nH]c3ccc(C4CCN(C(C)c5cnn(C)c5)CC4)cc3c2C(C)C)cn(C)c1=O (stereo not shown) ? 5.23

State the recorded pIC50 for this entry: "CCCN1CCC(c2ccc3[nH]c(-c4cc(-c5cnc(OC)nc5)c(=O)n(C)c4)c(C(C)C)c3c2)CC1" 5.57

What value of measured pIC50 is listed for "CCn1cc(-c2[nH]c3ccc(C4CCN(CC(=O)N(C)C)CC4)cc3c2C(C)C)c(C)c(C)c1=O" ? 5.71

Report pIC50 for "CNC(=O)CN1CCC(c2ccc3[nH]c(-c4nn(C)c(=O)c(C)c4C)c(C(C)C)c3c2)CC1" please. 4.79

Sample Cc1cc(-c2[nH]c3ccc(C4CCN(CC5CCOC5)CC4)cc3c2C(C)C)cn(C)c1=O (stereo not shown) — what was its pIC50? 5.16

Report pIC50 for "CCCN1CCC(c2ccc3[nH]c(-c4cc(-c5cnn(C)c5)c(=O)n(C)c4)c(C(C)C)c3c2)CC1" please. 6.31

# input compound: "CC(C)CN1CCC(c2ccc3[nH]c(-c4cc(-c5ccccc5)c(=O)n(C)c4)c(C(C)C)c3c2)CC1" ; wanted: its pIC50 5.71

Name the recorded pIC50 for "CCn1cc(-c2[nH]c3ccc(C4CCN(CC(=O)NC)CC4)cc3c2C(C)C)c(C)c(C)c1=O" . 4.94

Can you share its pIC50? I mean this compound: "COCCn1cc(-c2[nH]c3ccc(C4CCN(C(=O)CN(C)C)CC4)cc3c2C(C)C)cc(C)c1=O" 4.74

Name the reported pIC50 value associated with the compound "Cc1cc(-c2[nH]c3ccc(C4CCN(C(C)C)CC4)cc3c2C(C)C)nn(C)c1=O" 5.55

Would you kindly share the measured pIC50 for "Cc1nc(-c2[nH]c3ccc(C4CCN(CC(=O)N(C)C)CC4)cc3c2C(C)C)cn(C)c1=O" ? 5.18

Which pIC50 is listed for "Cc1c(-c2[nH]c3ccc(C4CCN(CC(=O)N(C)C)CC4)cc3c2C(C)C)nn(C)c(=O)c1C" ? 5.07

Need pIC50 of "Cc1cc(-c2[nH]c3ccc(C4CCNCC4)cc3c2C(C)C)cn(C)c1=O" , thanks. 5.36

Can you share its pIC50? I mean this compound: "Cc1cc(=O)n(C)nc1-c1[nH]c2ccc(C3CCNCC3)cc2c1C(C)C" 5.81

GET /values?readout=pIC50&item= "COc1cc(-c2[nH]c3ccc(C4CCNCC4)cc3c2C(C)C)cn(C)c1=O" 5.75

Param item = "Cc1c(-c2[nH]c3ccc(C4CCN(C5CCOCC5)CC4)cc3c2C(C)C)cc(C#N)c(=O)n1C" ; retrieve measured pIC50. 5.56

Please give the measured pIC50 for this compound: "CCn1cc(-c2[nH]c3ccc(C4CCNCC4)cc3c2C(C)C)cc(C)c1=O" 6.75

Which pIC50 value belongs to "Cc1cc(-c2[nH]c3ccc(C4CCN(Cc5cnn(C(C)C)c5)CC4)cc3c2C(C)C)cn(C)c1=O" ? 5.52

pIC50 for "CC(C)c1c(-c2cc(-c3cncnc3)c(=O)n(C)c2)[nH]c2ccc(C3CCN(CC4COC4)CC3)cc12" ? 5.69

Any idea what pIC50 was measured for "Cc1c(-c2[nH]c3ccc(C4CCNCC4)cc3c2C(C)C)cn(C)c(=O)c1N" ? 6.10

Which pIC50 value is on record for "Cc1c(-c2[nH]c3ccc(C4CCNCC4)cc3c2C(C)C)cn(C)c(=O)c1C#N" ? 5.43

Suppose we examine the compound "CCc1cc(-c2[nH]c3ccc(C4CCN(CC(=O)N(C)C)CC4)cc3c2C(C)C)cn(C)c1=O" ; what pIC50 value has been reported? 5.62

Recorded pIC50 of "Cc1c(-c2[nH]c3ccc(C4CCN(C(CCO)CCO)CC4)cc3c2C(C)C)cn(C)c(=O)c1Cl" , please. 5.75

So what's the measured pIC50 for this one? "CCn1cc(-c2[nH]c3ccc(C4CCN(C(=O)CN(C)C)CC4)cc3c2C(C)C)c(C)c(C)c1=O" 5.24

Fill in: pIC50 of "Cc1c(-c2[nH]c3ccc(C4CCNCC4)cc3c2C(C)C)cc(C#N)c(=O)n1C" is ___ 5.20

# get_value(readout='pIC50', item= "CC(C)c1c(-c2cc(-c3cccc(C(N)=O)c3)c(=O)n(C)c2)[nH]c2ccc(C3CCNCC3)cc12" ) 5.46
